Experiment: solvent given as SMILES
Conditions: in ClCCl
property.measured: absorption maximum (nm)

> print(dat)
                     structure.smiles.string   property.measured  number
 1  CC(C)(C)NC(=O)c1ccc(-c2ccccc2)c2ccc3c4ccccc4c4ccccc4c3c12  absorption maximum     336
 2              CN(C)c1ccc(/C=C2\CCCC2=O)cc1  absorption maximum     383
 3                        Nc1nc2ccc(Br)cc2s1  absorption maximum     268
 4  CCN(CC)c1ccc2c(c1)oc(=O)c1c(=O)oc3c(OC)cccc3c12  absorption maximum     458
 5  c1ccc(B2Nc3cc4c(cc3-c3occc32)NB(c2ccccc2)c2ccoc2-4)cc1  absorption maximum     388
 6  CN(C)c1ccc(C2=[N+]3C(=Nc4c5ccccc5c(-c5ccc(N(C)C)cc5)n4[B-]3(F)F)c3ccccc32)cc1  absorption maximum     794
 7  Clc1ccc(N2c3c(sc4ccccc34)Sc3sc4ccccc4c32)cc1  absorption maximum     309
 8     CN(C)c1ccc(/C=C/C=C/c2nc3ccccc3o2)cc1  absorption maximum     415
 9  Cc1ccc(C2=[N+]3C(=Cc4c(C)cc(C)n4[B-]3(F)F)c3ccccc32)[nH]1  absorption maximum     608
10  CCOc1cc2c(cc1/C=C/C(=C(C#N)C#N)c1ccccc1)c1ccccc1n2CC  absorption maximum     468
11  Cc1cc(O)c(C(C)C)cc1/N=C/c1ccc([N+](=O)[O-])cc1  absorption maximum     392
12    CN(C)c1ccc(/C=C/c2cc3ccccc3c[n+]2C)cc1  absorption maximum     441
13  Cc1c(C(=O)c2c(F)cc(F)cc2F)c2ccc3cccc4c5cccc6ccc1c(c65)c2c34  absorption maximum     390
14  CCC1=C(C)C2=C(/C=C/Sc3ccccc3)c3c(C)c(CC)c(C)n3[B-](F)(F)[N+]2=C1C  absorption maximum     528
15  c1ccc(N(c2ccccc2)c2ccc(-c3ccc4c(c3)C3(c5cc(-c6ccc(N(c7ccccc7)c7ccccc7)cc6)ccc5S4)c4ccccc4-c4ccccc43)cc2)cc1  absorption maximum     356
16  COc1ccc2c(c1)CCC1=C(C#Cc3ccccc3)O[B-](F)(F)[O+]=C12  absorption maximum     443
17  Cc1ccc(C2=[N+]3C(=Cc4ccc(C)n4[B-]3(F)F)c3ccccc32)[nH]1  absorption maximum     600
18  FC(F)(F)c1ccccc1B1c2ccccc2N(c2ccccc2)c2ccccc21  absorption maximum     389
19  CCN(CC)c1ccc2cc(-c3cc(SC)c(C#N)c(=O)o3)c(=O)oc2c1  absorption maximum     520
20       [C-]#[N+]c1ccc(-c2ccc(N(C)C)cc2)cc1  absorption maximum     336

---

Test: solvent given as SMILES
Conditions: in ClC(Cl)Cl
property.measured: absorption maximum (nm)

> print(dat)
                                    compound   property.measured  number
 1  O=Cc1ccc(C#CC(C#Cc2ccc(C=O)o2)=Cc2ccc(C=C(C#Cc3ccc(C=O)o3)C#Cc3ccc(C=O)o3)cc2)o1  absorption maximum     450
 2            CCC1=C(C)C2=Cc3cscc3B(O)N2C1=O  absorption maximum     355
 3  CC(=O)O[B-]1(OC(C)=O)OC(/C=C/C=C/c2ccccc2)=CC(/C=C/C=C/c2ccccc2)=[O+]1  absorption maximum     474
 4     CN(C)c1ccc(/C=C/C=C/c2nc3ccccc3o2)cc1  absorption maximum     414
 5  CC1=[N+]2C(=C(c3ccc(N(C)C)cc3)c3ccc(C)n3[B-]2(F)F)C=C1  absorption maximum     509
 6  COc1ccc(-c2cc(-c3ccc(OC)cc3)c3c(N)nc(N4CCCC4)c(C#N)c3n2)cc1  absorption maximum     420
 7              COc1ccc(C#Cc2ccc(C#N)cc2)cc1  absorption maximum     332
 8     CC1(C)Cc2c(c3ccccc3c3nc4ccccc4nc23)O1  absorption maximum  459.98
 9  CCOC(=O)C1(O)c2cc3ccc4cccc5ccc(c2C(=O)N1C(C)(C)C)c3c45 (stereo not given)  absorption maximum     385
10  COc1ccc2c(c1)c(C#N)cc1c(OC)c(OC)c3cc(C#N)c4cc(OC)ccc4c3c12  absorption maximum     471
